test system: large crabgrass (Digitaria sanguinalis); test: Test B pre-/postemergence plant response; format: in vivo; details: Postemergence, 31 g ai/ha; 0 to 100 scale (0 no effect, 100 complete control)
Entries and their measured Plant response rating, Crabgrass, Large follow.
QUANTITY: Plant response rating, Crabgrass, Large

{"columns": ["SMILES STR", "MEASURED VALUE"],
 "data": [
  ["CCc1cccc(-n2c(-c3ccccc3)ncc(C(=O)C3=C(O)CCCC3=O)c2=O)c1", 70],
  ["CCCn1c(-c2cc(Cl)cc(Cl)c2)ncc(C(=O)C2=C(O)CCCC2=O)c1=O", 70],
  ["O=C1CCCC(O)=C1C(=O)c1cnc(-c2ccccc2)n(C2CCCCCC2)c1=O", 85],
  ["O=C1CCCC(O)=C1C(=O)c1cnc(-c2ccsc2)n(C2CCOCC2)c1=O", 80]
]}

* * *

system: field bindweed (Convolvulus arvensis); test: Test D pre-/postemergence plant response; assay type: in vivo; conditions: Preemergence, 125 g ai/ha; scale 0 to 100
# Plant response rating, Field Bindweed per entry

{"columns": ["SMILES STR", "Plant response rating, Field Bindweed"],
 "data": [
  ["O=C1CCCC(O)=C1C(=O)c1cnc(-c2cccs2)n(-c2ccccc2)c1=O", 20],
  ["O=C1CCCC(O)=C1C(=O)c1cnc(-c2ccccc2)n(C2CCCCC2)c1=O", 98],
  ["Cc1c(F)cccc1-n1c(-c2ccccc2)ncc(C(=O)C2=C(O)CCCC2=O)c1=O", 35],
  ["Cc1ccc(F)c(-n2c(-c3ccccc3)ncc(C(=O)C3=C(O)CCCC3=O)c2=O)c1", 0]
]}

* * *

Listing of entries alongside the reported Plant response rating, Goosegrass.
tested on: goosegrass (Eleusine indica); experiment: Test B pre-/postemergence plant response; format: in vivo; conditions: Postemergence, 125 g ai/ha; scale 0 to 100 (0 no effect, 100 complete control)

{"columns": ["COMPOUND", "STUDY SYSTEM", "Plant response rating, Goosegrass"],
 "data": [
  ["CCCc1ncc(C(=O)C2=C(O)CCCC2=O)c(=O)n1-c1ccccc1", "goosegrass (Eleusine indica)", 85],
  ["CCn1c(-c2cc(F)cc(F)c2)ncc(C(=O)C2=C(O)CCCC2=O)c1=O", "goosegrass (Eleusine indica)", 70],
  ["O=C1CCCC(O)=C1C(=O)c1cnc(-c2ccccc2)n(C2CCOCC2)c1=O", "goosegrass (Eleusine indica)", 90],
  ["CCn1c(-c2cccc(F)c2)ncc(C(=O)C2=C(O)C3CCC(C3)C2=O)c1=O (stereo not drawn)", "goosegrass (Eleusine indica)", 95],
  ["CCCn1c(-c2cccc(F)c2)ncc(C(=O)C2=C(O)CCCC2=O)c1=O", "goosegrass (Eleusine indica)", 75],
  ["CCCn1c(-c2cc(Cl)cc(Cl)c2)ncc(C(=O)C2=C(O)CCCC2=O)c1=O", "goosegrass (Eleusine indica)", 95],
  ["CCCn1c(-c2ccccc2)ncc(C(=O)C2=C(O)C3CCC(C3)C2=O)c1=O (stereo not drawn)", "goosegrass (Eleusine indica)", 85],
  ["O=C1CCCC(O)=C1C(=O)c1cnc(-c2cccs2)n(CC2CCCO2)c1=O (stereo not drawn)", "goosegrass (Eleusine indica)", 80],
  ["O=C1CCCC(O)=C1C(=O)c1cnc(-c2ccccc2)n(C2CCCCCC2)c1=O", "goosegrass (Eleusine indica)", 95]
]}
